- Read-out: Interleukin-8 (IL8), CXCL8 (gene 3576)
- test method notes: BSK_CASM3C_IL8: BioMAP Diversity Plus: CASM3C Assay for Interleukin-8 (IL8) Biomarker Activity (AID 2283042);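 also: IL-8 protein level quantified by ELISA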
- reported conditions: primary human coronary artery smooth muscle cells; actives raise or lower the signal
Activity calls are given as the source filed them. The calls were made as follows: active = hit-call score of the fitted dose curve at least 0.9, where 1 is the maximum; inactive = score below 0.9.
Pick one: active, inactive

Below, 10 compounds whose answers are already recorded.
O=C(O)CCC(F)(F)C(F)(F)C(F)(F)C(F)(F)C(F)(F)F :: inactive
Oc1c(Cl)cc(Cl)cc1Sc1cc(Cl)cc(Cl)c1O :: inactive
CCCCCCCCCCCC :: inactive
Oc1ccc(Cc2ccccc2O)cc1 :: inactive
O=C(CCCN1CCC(O)(c2ccc(Cl)cc2)CC1)c1ccc(F)cc1 :: inactive
CCC(C)c1ccccc1O (stereo unspecified) :: inactive
CC1=NN(c2ccccc2)C(=O)C1 :: inactive
OCCN1CN(CCO)CN(CCO)C1 :: inactive
CCCCC(CC)C(=O)OCCOCCOCCOCCOC(=O)C(CC)CCCC (stereo unspecified) :: inactive
O=C(CC(=O)C(F)(F)C(F)(F)C(F)(F)F)c1cccs1 :: inactive

q: // param item: O=P(O)(O)CCC(F)(F)C(F)(F)C(F)(F)C(F)(F)C(F)(F)C(F)(F)C(F)(F)C(F)(F)F ; yields the recorded call
a: inactive

----------
- test method notes: Tanguay_ZF_120hpf_MORT: Oregon State University Tanguay Lab 120 Hour Post-fertilization zebrafish Assay for Mortality (AID 2284399)
The source made the active and inactive calls. How the source made its calls: active means hit-call score of the fitted dose curve at least 0.9, where 1 is the maximum; inactive means score below 0.9.
Response enum: active, inactive

O=C(O)C(F)(F)OC(F)(F)C(F)(F)OC(F)(F)C(F)(F)OC(F)(F)C(F)(F)C(F)(F)C(F)(F)F :: active
OCC(F)(F)C(F)(F)C(F)(F)C(F)(F)C(F)(F)C(F)(F)C(F)(F)C(F)(F)C(F)(F)C(F)(F)C(F)(F)F :: inactive
C=CC(=O)OCCC(F)(F)C(F)(F)C(F)(F)C(F)(F)C(F)(F)C(F)(F)C(F)(F)C(F)(F)F :: inactive

Please examine the following record next.
q: What classification did O=C(CC(=O)C(F)(F)C(F)(F)C(F)(F)F)c1cccs1 end up with in this test?
a: inactive

----------
- test method notes: ATG_MRE_CIS: Attagene CIS-FACTORIAL HepG2 Assay for human Metal Responsive Element (MRE) (AID 2282954)
- reported conditions: HepG2 MRE cis-reporter transcription, Attagene multiplex; actives raise or lower the signal
Active and inactive are the calls of the source. The calls were made as follows: active = hit-call score of the fitted dose curve at least 0.9, where 1 is the maximum; inactive = score below 0.9.
Reply using exactly one outcome from true (1) for active, false (0) for inactive

Illustrative cases are given below, each with its answer.
CCc1cccc(CC)c1NC(=O)C(=O)O :: false (0)
Cn1sccc1=O :: true (1)
CCCCC=O :: false (0)
CCOC(C)=O :: false (0)
C=CC(=O)OCCC(F)(F)C(F)(F)C(F)(F)C(F)(F)C(F)(F)C(F)(F)C(F)(F)C(F)(F)F :: false (0)
CCCCCCCCC(C)=O :: false (0)

q: Which outcome was entered for the molecule NNc1nc(-c2ccc([N+](=O)[O-])cc2)cs1 in this test?
a: false (0)

q: Would you mind telling me which call this test gave Cc1cc(C(=C2C=CC(=Nc3ccc(S(=O)(=O)O)cc3)C=C2)c2ccc(Nc3ccc(S(=O)(=O)O)cc3)cc2)cc(S(=O)(=O)O)c1N ?
a: false (0)

q: Can you look up the reported call for CC1CNCC(C)O1 (stereo not drawn) for me?
a: false (0)

q: So what was the verdict on O=C1Cc2ccccc2N1c1c(Cl)cccc1Cl in this test?
a: true (1)

q: Each molecule tested received a call. Report the one for O=C(Nc1ccc(Cl)c(Cl)c1)c1cc(Cl)cc(Cl)c1O .
a: true (1)

q: Answer briefly: the call reported for Oc1cccc2c(O)cccc12 in this assay.
a: false (0)

q: Entry Clc1ccc(Nc2nnc(Cc3ccncc3)c3ccccc23)cc1 : call = ?
a: true (1)

----------
- Read-out: Cytochrome P450 3A4 (Homo sapiens)
- test method notes: LTEA_HepaRG_CYP3A4: Life Technologies and Expression Analysis (LTEA) Assay for CYP3A4 using HepaRG (AID 2283487)
- reported conditions: mRNA level, 48 h; actives raise or lower the signal
Active and inactive are the calls of the source. Rule for the calls: active = hit-call score of the fitted dose curve at least 0.9, where 1 is the maximum; inactive = score below 0.9.
# output must be one of YES (active), NO (inactive)

CCCCC(CC)C(=O)O (stereo not given) :: NO
CCCCC=O :: NO
CC(=O)Nc1ccc(O)cc1 :: NO
CN(Cc1cnc2nc(N)nc(N)c2n1)c1ccc(C(=O)N[C@@H](CCC(=O)O)C(=O)O)cc1 :: NO

q: So what was the verdict on CCCCCCCCCCCCCCC in this test?
a: YES

----------
- test method notes: CCTE_Shafer_MEA_dev_network_spike_number: CCTE's Neural Network Formation Assay for Number of Network Spikes, Shafer Lab (AID 2284048);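 also: synchronized bursts across electrodes counted on days 5 7 9 12 and integrated as AUC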
Activity calls are given as the source filed them. The calls were made as follows: active = hit-call score of the fitted dose curve at least 0.9, where 1 is the maximum; inactive = score below 0.9.
Hi there, use one of these labels in your reply, thanks! active, inactive

CN(CCO)S(=O)(=O)C(F)(F)C(F)(F)C(F)(F)C(F)(F)C(F)(F)C(F)(F)C(F)(F)C(F)(F)F :: inactive
O=P(O)(O)CCC(F)(F)C(F)(F)C(F)(F)C(F)(F)C(F)(F)C(F)(F)C(F)(F)C(F)(F)F :: active
O=CC(F)(F)C(F)(F)C(F)(F)C(F)F :: inactive

q: Give the logged outcome of this assay for the following compound: O=C(OC(=O)C(F)(F)C(F)(F)F)C(F)(F)C(F)(F)F
a: inactive

q: Give the logged outcome of this assay for the following compound: Nc1ccn([C@@H]2O[C@H](CO)[C@@H](O)C2O)c(=O)n1 (some centres not stated)
a: active

q: Hi team, can someone confirm the assay call for COC(=O)C(F)(F)C(F)(F)C(F)(F)C(F)(F)C(F)(F)F ?
a: inactive

q: Which outcome was entered for the compound O=C1NS(=O)(=O)c2ccccc21 in this test?
a: inactive

----------
- study target: Estrogen receptor beta (Homo sapiens)
- test method notes: OT_ER_ERbERb_0480: Odyssey Thera (OT) 8-hour HEK293T Protein-Complementation Assay for Estrogen Receptor-beta/-beta Homodimer (AID 2283357);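 also: active means signal gain over DMSO baseline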
Inconclusive results are not listed. Active and inactive are the calls of the source. Rule for the calls: active = hit-call score of the fitted dose curve at least 0.9, where 1 is the maximum; inconclusive = response in the unintended direction; inactive = score below 0.9.
Pick one: active, inactive

COc1cc([N+](=O)[O-])ccc1N :: inactive
CCCCCCCCCCCC(=O)O :: inactive
NCc1cccc(CN)c1 :: inactive
NS(=O)(=O)O :: inactive
O=C1NS(=O)(=O)c2ccccc21 :: inactive
CCCCCCc1ccc(N)cc1 :: active
CCCCc1ccc2ccccc2c1S(=O)(=O)O :: inactive
CC(=O)Nc1ccc(O)cc1 :: inactive
CCC(C)c1ccccc1O (stereo not drawn) :: inactive
Cc1cc(C(C)(C)C)c(O)c(C(C)(C)C)c1 :: inactive

q: What is the recorded call for this compound in the test? CCc1ccccc1O
a: inactive

q: Lab log entry: C[C@]12CC[C@@H]3c4ccc(O)cc4CC[C@H]3[C@@H]1C[C@@H](O)[C@@H]2O — outcome as called in the assay?
a: active

q: Given Cc1cc(Cc2cc(C)cc(C(C)(C)C)c2O)c(O)c(C(C)(C)C)c1 , state the outcome it received in this test.
a: inactive

----------
- test method notes: CCTE_Shafer_MEA_acute_synchrony_index: CCTE's Neural Acute Assay for Synchrony, Shafer Lab (AID 2284027);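 also: network synchrony index of spontaneous spiking in primary rat cortical neurons on MEAs; fitted for loss of signal so actives lower synchrony relative to DMSO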
Calls of active or inactive are those of the source. How the source made its calls: active means hit-call score of the fitted dose curve at least 0.9, where 1 is the maximum; inactive means score below 0.9.
One label from this list, please: 1 = active, 0 = inactive

Consider the following illustrative entries.
N=C(N)c1ccc(OCCCCCOc2ccc(C(=N)N)cc2)cc1 :: 1
Oc1c(Cl)cc(Cl)cc1Sc1cc(Cl)cc(Cl)c1O :: 1
CCCCC=O :: 0
Oc1ccc(Cc2ccccc2O)cc1 :: 0
CCCCCCCCCCCC :: 0

q: Please indicate how the test categorized O=C(CCCN1CCC(O)(c2ccc(Cl)cc2)CC1)c1ccc(F)cc1 .
a: 0

q: Check the results log: what was the call for CC(=O)Nc1ccc(O)cc1 ?
a: 0

q: Just curious, what result did CN(C)CCOC(c1ccccc1)c1ccccc1 get here?
a: 0

q: // param item: O=C1NS(=O)(=O)c2ccccc21 ; yields the recorded call
a: 0

----------
- test method notes: APR_HepG2_MitoMembPot_72hr: Apredica 72-hour HepG2 Assay for Mitochondrial Membrane Potential (AID 2282917)
- reported conditions: imaging, actives raise or lower the signal
Calls of active or inactive are those of the source. How the source made its calls: active means hit-call score of the fitted dose curve at least 0.9, where 1 is the maximum; inactive means score below 0.9.
Your reply should match one of these outcome classes. 1.0 for active, 0.0 for inactive

Worked set:
O=C(c1ccccc1)c1ccccc1 :: 0.0
CN(Cc1cnc2nc(N)nc(N)c2n1)c1ccc(C(=O)N[C@@H](CCC(=O)O)C(=O)O)cc1 :: 1.0
CN(C)CCOC(c1ccccc1)c1ccccc1 :: 0.0
CCCCc1oc2ccccc2c1C(=O)c1cc(I)c(OCCN(CC)CC)c(I)c1 :: 0.0

q: For N=C(N)c1ccc(OCCCCCOc2ccc(C(=N)N)cc2)cc1 , what call appears in the results of this test?
a: 0.0

q: Call for entry CS(=O)(=O)c1ccc([C@@H](CC2CCCC2)C(=O)Nc2cnccn2)cc1Cl :
a: 0.0

q: GET /call?item= O=C1NS(=O)(=O)c2ccccc21 returns the recorded outcome of this test.
a: 0.0
